tested on: Pseudomonas aeruginosa; test: Antimicrobial activity against Pseudomonas aeruginosa 1771M; format: functional
Answer each item with its documented MIC.

Reported MIC for Pseudomonas aeruginosa, given C[C@H](CO)[C@H]1CC[C@H]2[C@@H]3[C@H](F)C[C@H]4C[C@@H](NCCCNCCCCN)CC[C@]4(C)[C@H]3CC[C@]12C.Cl.Cl.Cl ?
3.1 µg/mL

Please state recorded MIC (tested on Pseudomonas aeruginosa) of C[C@H](CO)[C@H]1CC[C@H]2[C@@H]3[C@H](O)C[C@H]4C[C@@H](NCCCNCCCCN)CC[C@]4(C)[C@H]3CC[C@]12C.Cl.Cl.Cl
25 µg/mL

Give the reported MIC for C[C@H](CO)[C@H]1CC[C@H]2[C@@H]3[C@H](N)C[C@H]4C[C@H](N)CC[C@]4(C)[C@H]3CC[C@]12C.Cl.Cl (system: Pseudomonas aeruginosa).
25 µg/mL

Tell me reported MIC for C[C@H](CO)[C@H]1CC[C@H]2[C@@H]3[C@H](N)C[C@H]4C[C@H](NCCCNCCCCN)CC[C@]4(C)[C@H]3CC[C@]12C.Cl.Cl.Cl.Cl , tested with Pseudomonas aeruginosa.
> 100 µg/mL

What measured MIC is associated with C[C@H](COS(=O)(=O)O)[C@H]1CC[C@H]2[C@@H]3[C@H](N)C[C@H]4C[C@@H](NCCCNCCCCN)CC[C@]4(C)[C@H]3CC[C@]12C.Cl.Cl.Cl.Cl on Pseudomonas aeruginosa?
> 100 µg/mL

// fetch Pseudomonas aeruginosa MIC for C[C@H](CO)[C@H]1CC[C@H]2[C@@H]3[C@H](N)C[C@H]4C[C@H](NCCCNCCCCNCCCN)CC[C@]4(C)[C@H]3CC[C@]12C.Cl.Cl.Cl.Cl.Cl
25 µg/mL

Please provide the recorded MIC for CC(C)[C@H]1CC[C@H]2[C@@H]3[C@H](O)C[C@H]4CC(N)CC[C@]4(C)[C@H]3CC[C@]12C (stereo partly drawn) , tested on Pseudomonas aeruginosa.
100 µg/mL

Find the measured MIC: item C[C@H](CO)[C@H]1CC[C@H]2[C@@H]3[C@H](N)C[C@H]4C[C@@H](N)CC[C@]4(C)[C@H]3CC[C@]12C.Cl.Cl , target or system Pseudomonas aeruginosa.
50 µg/mL
